Values from the supplement of paper PMC9170038

apparent KD of MS2 coat protein values by entry
system: MS2 coat protein; test: apparent KD of MS2 coat protein; designed switch direction (-1 OFF switch, 1 ON switch): -1; higher = weaker reporter binding; conditions: Eterna round: R95; input ligand: none
readoutName: apparent KD of MS2 coat protein (nM)

inputsequence="AGACAGUCAGGAUAUACAUGAGGAUCACCCAUGUUGAGAUGAGAAAGGGCAGGAAGAGGUAGAAGGGACGAGAG [JR_Exclu3_Sub036] (puzzle: Exclusion 3)" experimentalsystem="MS2 coat protein" testresult=30.4
inputsequence="UCGAAGCUAGGAUAUACAUGAGGAUCACCCAUGUGAGUAAUAACUUGGAGAUACCUCCGUAGAAGGAGCACAAA [Beatdienat] (puzzle: Exclusion 3)" experimentalsystem="MS2 coat protein" testresult=125
inputsequence="UAGAAUCGAGGAUAUACAUGAGGAUCACCCAUGUGUUGCCGCAUGAUAUGAUCGUCAGGUAGAAGGCGAUUAUA [Exclusion 3 - Mod of Jieux's Gilly Gone Silly 23 v.6] (puzzle: Exclusion 3)" experimentalsystem="MS2 coat protein" testresult=82.9
inputsequence="AGGAGCAGAGGGAGAUCCAACAUGAGGAUCACCCAUGUCUCAUAAGCUUUUUGCUCAUCUUAUUGUACCUUGGUGCA [Mat - Sensor v3 - turn-off var 1 - JL Mod - D27] (puzzle: Sensor v3, turn-off variant 1)" experimentalsystem="MS2 coat protein" testresult=22.3
inputsequence="CUAGAUCUUCGGAUCUAGUACAUGAGGAUCACCCAUGUGACGAGUUGAUCCUCAAACAAGCUUUUUGCUCGUCUUAU [Sensor v3 - Turn-off variant 1 - 17] (puzzle: Sensor v3, turn-off variant 1)" experimentalsystem="MS2 coat protein" testresult=22.1
inputsequence="GGUACUAACACGAAAGUGUUAGUACAAUAAGCUAGUGGAACAUGAGGAUCACCCAUGUCCUCAUUAGCUCGUCUUAU [Mat - Sensor v3 - Turn-off var 2 - D36] (puzzle: Sensor v3, turn-off variant 2)" experimentalsystem="MS2 coat protein" testresult=15
inputsequence="CUAGACCGAGGAUAUAUUAUGUGAAACAUGAGGAUCACCCAUGUAAUAUGAUGGAUGUAAAUAGAAGGCGGUCUAG [Mat - Exclusion 5 - JL mod - D29] (puzzle: Exclusion 5)" experimentalsystem="MS2 coat protein" testresult=23
inputsequence="AAAUAACAAGCAGGAUCCUACAUGAGGAUCACCCAUGUGCUCGUCUUAUAAAGUACUAUCACGAAAGUGAUAGUACA [Sensor 3, v1 - 14] (puzzle: Sensor v3, turn-off variant 1)" experimentalsystem="MS2 coat protein" testresult=363
inputsequence="AUAAGCUUUGAUAUCCUUAACAUGAGGAUCACCCAUGUUCGUCUUAUGAUGGUCUGAUCCCUGAGGAUCGGACCGUU [JL-sv1-2.06 Brourd Mod] (puzzle: Sensor v3, turn-off variant 1)" experimentalsystem="MS2 coat protein" testresult=33.1
inputsequence="CACAAGCUUUUUUGUUGCUUUUUAGUUGGUGUGUGAUUUACAUGAGGAUCACCCAUGUUAUUGAUGCUCGAUCUUUU [JR_SV3TOV2_Sub082] (puzzle: Sensor v3, turn-off variant 2)" experimentalsystem="MS2 coat protein" testresult=97.3

###

system: MS2 coat protein; test: apparent KD of MS2 coat protein; designed switch direction (-1 OFF switch, 1 ON switch): 1; higher = weaker reporter binding; conditions: input ligand: microRNA oligo, concentration not stated
Tick true if apparent KD of MS2 coat protein is 50 nM or greater. Tick false if apparent KD of MS2 coat protein is less than 50 nM.

inputsequence="AAUUAAGAUUGAGGAUAUCACGUCGAAUAGACGUGAGAAGGCGAUCAUAACAUGAGGAUCACCCAUGUAUUACAUGAAUUAAUU [SSNG1/5-B1] (Eterna round: R96, puzzle: Same State NG 1)" experimentalsystem="MS2 coat protein" category=false
inputsequence="GGAGCCGGCCUAGGAUAUUUCAUAAUAAUACAUGAGGAUCACCCAUGUAGGCCAGAAGGCCUUGGGAAGAAGGAGGUCGGCUCC [Loop Effect - U26,U29] (Eterna round: R96, puzzle: Same State NG 2)" experimentalsystem="MS2 coat protein" category=false
inputsequence="GGUGGGUUGCUGCCGGCACAUGAGGAUCACCCAUGUUUUGGGAAGGAUAUGGUCCCUCUUUGGUGCCAGAAGGUCCCGUUGGUC [salish99_SSNG3_r04_715] (Eterna round: R96, puzzle: Same State NG 3)" experimentalsystem="MS2 coat protein" category=true
inputsequence="GCGAAGAGGUAAGGAUAUUCAUGGCGGAGACAUGAGGAUCACCCAUGUAGGAGACGAAAUCUAAGGGAGAAGGUACCAGGACGC [AK SSNG2-V2-14] (Eterna round: R96, puzzle: Same State NG 2)" experimentalsystem="MS2 coat protein" category=true
inputsequence="AGGCUGAGUCGAGGAUAUUAUGGAUCCUCUAAUACAUGAGGAUCACCCAUGUAAUUAAUUAUACAUGAGAAGGUGACUCAGCCA [SSNG2/12-B3] (Eterna round: R96, puzzle: Same State NG 2)" experimentalsystem="MS2 coat protein" category=true
inputsequence="GAGAGAUGAUUAGGAUAUCCGGUGAUAAUGAUAGGAGAAGGAAUUGACAUGAGGAUCACCCAUGUGGGAAUAAUCCAGAGAGAG [Parity 23 - Jieux - Same State NG 1] (Eterna round: R96, puzzle: Same State NG 1)" experimentalsystem="MS2 coat protein" category=true
inputsequence="GGUGGCGAAAGCGACAUGAGGAUCACCCAUGUCAUCGGAGGGCAGGAUAUCCGGCGAAAGCCGAAGGAGAAGGGUCGAAAAGAA [ssng3v2 b] (Eterna round: R96, puzzle: Same State NG 3)" experimentalsystem="MS2 coat protein" category=false
inputsequence="AAGUGAAUAGUGAUUACAUGAGGAUCACCCAUGUGGUGGAUGCAGGAUAUUAUUAGACCGUACAAUAAGAAGGGCGUAAUCACC [Eternabot solution 44] (Eterna round: R96, puzzle: Same State NG 3)" experimentalsystem="MS2 coat protein" category=true
inputsequence="GUGGUGGGUUGAGGAUAUUGGUUGUUGUUGUUUUACAUGAGGAUCACCCAUGUGGGUUGUGGUUUUGAGAAGGUUGGUUGCUGG [salish99_SSNG2_r04_048] (Eterna round: R96, puzzle: Same State NG 2)" experimentalsystem="MS2 coat protein" category=true
inputsequence="GCUAGAAUUAAAGCCAACAUGAGGAUCACCCAUGUAUGUUGGCAGGAUAUCGUUUGCUUUGCAAACGAGAAGGGCUAAACUAGC [JL SSNG3 1.02] (Eterna round: R96, puzzle: Same State NG 3)" experimentalsystem="MS2 coat protein" category=true
inputsequence="UUGAAGAAUUAAGGAUAUCGAGUCAAGAUGUAAAACAUGAGGAUCACCCAUGUGGGUUGCGGUAUCGAGAAGGUAAAUUACAAG [Mat - Same State NG 2 - JL mod - D52] (Eterna round: R96, puzzle: Same State NG 2)" experimentalsystem="MS2 coat protein" category=false
inputsequence="AGAUGUUAAUCAGGAUAUGGGCACAUGAGGAUCACCCAUGUAUUUUCGAUGCUAUGUGGAGACGUCUAGAAGGGAUGGCUAACA [SameState NG2 #86] (Eterna round: R96, puzzle: Same State NG 2)" experimentalsystem="MS2 coat protein" category=true
inputsequence="AACCCAUCGGGAGGAUAUGGCACCUUAUUGGUGCCAGAAGGUCCAACAUGAGGAUCACCCAUGUGGGAGCCGUCGAAAGACGGC [Fiskers NG1ss - 7] (Eterna round: R96, puzzle: Same State NG 1)" experimentalsystem="MS2 coat protein" category=true
inputsequence="UAUAUUAUGGUAGGAUAUCUAGGAUAUGGGAAGAGCUAAGCUUGGAAGUCACUUCACCCAGAAGGAGAGAAGGACCAUAAUAUU [pwkr ssNG2 2FMN + F9.5] (Eterna round: R96, puzzle: Same State NG 2)" experimentalsystem="MS2 coat protein" category=true
inputsequence="CCGUAGAUGGAAGGAUAUGGAGCCUUAUUGGCUCCAGAAGGUUCAAUAACAUGAGGAUCACCCAUGUCGGCGGUCAAUAGACCG [Eli NG1ss - 80] (Eterna round: R96, puzzle: Same State NG 1)" experimentalsystem="MS2 coat protein" category=false
inputsequence="GGCAGGUGCAGGCUUGCUUGCACCUGGAGACAUGAGGAUCACCCAUGUUUGGGACAAGCUUUGCUCCUCGUCUUUUC [JL ViennaUCT Isusreraar mod 7] (Eterna round: R96, puzzle: Sensor for hsa-mir-208a)" experimentalsystem="MS2 coat protein" category=true
inputsequence="GAAAUAAUGAAAGGAUAUACAUGAGGAAUUCUCGUAGAAGGUUCAUGACAUGAGGAUCACCCAUGUAUCGCUCGAAAGAGCGAG [Mat - Same State NG 1 - JL mod - D31] (Eterna round: R96, puzzle: Same State NG 1)" experimentalsystem="MS2 coat protein" category=true
